B1: glmS ribozyme (parent)
chain: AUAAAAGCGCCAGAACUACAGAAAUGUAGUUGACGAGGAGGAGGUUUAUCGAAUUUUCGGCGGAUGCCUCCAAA

Variants of: B1
Assay Info: self-cleavage kobs at 2500 uM GlcN6P; higher = faster cleavage; RNA array
Condition Set: with glucosamine-6-phosphate
Fewer inactive variants are shown than the library holds.
Listed here: items and their measured self-cleavage kobs at 2500 uM GlcN6P.
Endpoint Name: self-cleavage kobs at 2500 uM GlcN6P

> print(dat)
                              entry.sequence        result
 1  AUAAAGGCGCCAGAACUACAGAAAUGUAGUUGACGAGGAGGAGGUUUAUUGAAUCUUCGGCGGAUGCCUCCAAA [A6G C50U U55C]   < 1e-05 s⁻¹
 2  AUAAAAGCUCCAGAACUACAGAAAUGUAGUGGACGAGGAGGAGGUUUAUCGAAUUUUCGGCGGAUGCCUCCAAA [G9U U31G]   < 1e-05 s⁻¹
 3  AUAAAAGCGGCAGAACUACAGAAAUGUAGUUGACGAGGACGAGGUUUAUCGAAUUUUCUGCGGAUGCCUCCAAA [C10G G40C G59U]   < 1e-05 s⁻¹
 4  AUAAAAGCGCCAAAAAUACAGAAAUGUAGUUGACGAGGAGGAGGUUUAUCGUAUUUUCGGCGGAUGCCUCCAAA [G13A C16A A52U]   < 1e-05 s⁻¹
 5  AUAAAAGUGCCAGAACUACAGAAAUGUAGUUAACGAGGAGGAGGUUUAUCGAAUUUUCGGCGGAUGCCUCCAAA [C8U G32A]   < 1e-05 s⁻¹
 6  AUAAAAGCGCCAGAACUACAGAAAUGUAGUUGACGAGGAGUAGGUUUAUCGAAUUUUCGGCGUAUGCCUCCAAA [G41U G63U]   < 1e-05 s⁻¹
 7  AUAAAAGCGCCAGAAUUACAGAAAUGUAGUUGACGAGGAGGAGGUUAAUCGAAUUUUGGGCGGAUGCCUCCAAA [C16U U47A C58G]  2.28e-05 s⁻¹
 8  AUAAAAGCGCCAGACCUACAGAAAUGUAGUUGACGAGGAGGAGGUUUAUCGACUUUUCGGCGGAUGCCUCCAAA [A15C A53C]  0.000472 s⁻¹
 9  AUAAAAGCGCCAGAACUACAGAAAUGUAGUGGACGAGGAGGAGCUUUAUCGAAUUUUCCGCGGAUGCCUCCAAA [U31G G44C G59C]   < 1e-05 s⁻¹
10  AUAAAAGCGCCAGAACUACAGAAAUGUAGUUGACGAGGAGGAGGUUUAUGGAUUUUUCGGCGUAUGCCACCAAA [C50G A53U G63U U69A]  0.000121 s⁻¹
11  AUAAAAGCGCCAGAACUACAGAAAUGUAGUUCACGAGUAGGAAGUUUAUCGAAUUUUCGGCGGAUGACUCCAAA [G32C G38U G43A C67A]   < 1e-05 s⁻¹
12  AUAAAAGCGCCAGAACUACAGAAAUGUAGUUGCCGAGAAGGAGGUUUAUCGAAUUUUCGGCGGAUGCCUCCAAA [A33C G38A]   < 1e-05 s⁻¹
13  AUAAAAGCGCCAGAACUACAGAAAUGUAGUUGACGAGGAGGAGGUGUAUCGAGUUUUCGGCGGAUUCCUCCAAA [U46G A53G G66U]  0.000148 s⁻¹
14  AUAAAAGCGCCAGGACUACAGAAAUGUAGUUGACGAGGAAGAGGUUUAUCGAAUUUUCGGCGGAUGCCUCCAAA [A14G G40A]   0.00484 s⁻¹
15  AUAAAAUCGCCAGAGCUACAGAAAUGUAGUUGACGAGGAGGAGGUUUAUCGAAUUUUCGGCGGAUGCCUCCAAA [G7U A15G]   < 1e-05 s⁻¹
16  AUAAAAGCGCCAGAACUACAGAAAUGUAGUUGACGAGGAGGAGGUUAAUCGGAUUUUCGGCGGAUGCCUCCAAA [U47A A52G]  0.000661 s⁻¹
17  AUAAAAGGGCCAUAACUACAGAAAUGUAGUUGACGAGGUGGAGGUUUAUCGAAUUUUCGGCGGAUGCGUCCAAA [C8G G13U A39U C68G]   < 1e-05 s⁻¹
18  AUAAAAGCGCCAGAACUACAGAAAUGUAGCUGACGAGGAGGAGGUUUAUCGAAUUAUCGGCGGAUGCCUCCAAA [U30C U56A]  0.000155 s⁻¹
19  AUAAAAGCCCCAGACCUACAGAAAUGUAGUUGACGAGGAGGAGAUUUAUCGAAUUUUCGUGGGAUGCCUCCAAA [G9C A15C G44A G60U C61G]   < 1e-05 s⁻¹
20  AUAAAAGCGCCAGAACUACAGAAAUGUAGUCGACAAGGAGGAGGUUUAUCGAAUUUUCGGCGGAUGCCUCUAAA [U31C G35A C71U]   < 1e-05 s⁻¹
21  AUAAAAGCCCCAGAACUACAGAAAUGUAGUUGACGAGGAGGAGGUUUAUCGAAUUUUCGGCGCAUGCCUCCAAA [G9C G63C]   < 1e-05 s⁻¹
22  AUAAAAGCGCCAGAACUACAGAAAUGUAGUUGACGAGGAGUAGCUUUAUCGAAUGUUCUGCGGAUGCCUCCAAA [G41U G44C U55G G59U]   < 1e-05 s⁻¹
23  AUAAAAGCGCCAGAACUACAGAAAUGUAGUUGACUAGGGGGAGGUUUAUCGAAUUUUCGGCGGAUGCCUCCAAA [G35U A39G]   < 1e-05 s⁻¹
24  AUAAAUGCGCCAGAACUACAGAAAUGUAGUUGACGAGGAGGAGGUUUAUAUAAUUUUCGGCGGAUGCCUCCAAA [A6U C50A G51U]   < 1e-05 s⁻¹
25  AUAAAAGCGCCAGAUCUACAGAAAUGUAGUUGACGAGGAGGAGGUUUAUGGAAUUUUCGGCGGAUCCCUCGAAA [A15U C50G G66C C71G]  9.27e-05 s⁻¹
26  AUAAAAGCGCCAGAACUACAGAAAUGUAGUUGACGAAGAGGAGGUUUAUCGAGUGUUCGGCGGAGGCCUCCAAA [G37A A53G U55G U65G]  8.03e-05 s⁻¹
27  AUAAAAGCGCUAGAACUACAGAAAUGUAGUUGACGAGGAGGAGGUUUAUCGAAAUUUCGGCGGAUGCCUGCAAA [C11U U54A C70G]  9.38e-05 s⁻¹
28  AUAAAAGCGCCAGAACUACAGAAAUGUAGUUGACGAGGAGGAGUAUAAUCGAAUUUUCGGCGGAUGCCUCCAAA [G44U U45A U47A]  0.000474 s⁻¹
29  AUAAACGCGCCAGAACUACAGAAAUGUAGUUGACGAGGAGGAGGUUUAUCAAAUUUUCGGCGGAUGCCUCCAAA [A6C G51A]   < 1e-05 s⁻¹
30  AUAAAUGCGCCAGAACUACAGAAAUGUAGUUGACGGGGAGGAGGUCUAUCGGAUUUUCGGCGGAUGUCUCCAAA [A6U A36G U46C A52G C67U]   < 1e-05 s⁻¹
31  AUAAAAGCGCCACAACUACAGAAAUGUAGUUGACGAGGAGGUGGUUUAUCGAAUUUACGGCGCAUGCCUCCAAA [G13C A42U U57A G63C]   < 1e-05 s⁻¹
32  AUAAAGGCGCCAGGACUACAGAAAUGUAGUUCACGAGGAGGAGAUUUAUCGACUUUUCGGCGGAGGCUUCCAAA [A6G A14G G32C G44A A53C U65G C68U]   < 1e-05 s⁻¹
33  AUAAAAGCGCCAGUACUACAGAAAUGUAGUCGACGAGGCGGAGGUUUAUCGAAUUUUCGGCGGAUGCCUCCAAA [A14U U31C A39C]  0.000324 s⁻¹
34  AUAAAAGCGCCAGAUCUACAGAAAUGUAGUUGACGAGGAGGAGGUUUAUCGAAUUAUCGGCGGAUGCCUCCAAA [A15U U56A]   0.00224 s⁻¹
35  AUAAAAGCGCCAGUACUACAGAAAUGUAGUUGACGAGGAGGAGGUGUAUCGAAUUUUCGGCGGAUGCCUCCAAA [A14U U46G]  0.000548 s⁻¹
36  AUAAAAGCGCCAGAAGUACAGAAAUGUAGCUCACGAGGAGGAGGUUUAUCGAAUUUUGGGCGGAUGCCUCCAAA [C16G U30C G32C C58G]  5.09e-05 s⁻¹
37  AUAAAAGCGCCAGGUCUACAGAAAUGUAGUUGACGAGGAGGAGGUUUAUCGAAUUUUCGGCGGAUGCGUCCAAA [A14G A15U C68G]  9.14e-05 s⁻¹
38  AUAAAAGCGCCAGAACUACAGAAAUGUAGUUGACGAAGAAGAGGUUUAUCGAAUUGUCGGCGGAUGCCUCCAAA [G37A G40A U56G]  5.62e-05 s⁻¹
39  AUAAAAACGCCAGAACUACAGAAAUGUAGAUGACGAGGAGGAGGCUUAUCGAAUUUUCGGCGGAUGCCUCCAAA [G7A U30A U45C]   < 1e-05 s⁻¹
40  AUAAAAGCGCCAGAACUACAGAAAUGUAGAUGACGAGGUGGAGGUUUAUCGAAUUUUCGGCGUAUGCCUCCAAA [U30A A39U G63U]   < 1e-05 s⁻¹
41  AUAAAAGCGCCAGAACUACAGAAAUGUAGUUGACGAGGAGGAGGUUUAUCGAUUUUUCGGCCGAUGCCUCCAAA [A53U G62C]   < 1e-05 s⁻¹
42  AUAAAAGCGCCAUAUCUACAGAAAUGUAGUUGACGAGGAGGAGGUUUAUCGAAUUUUCGGCGGAUGCCUCCAAA [G13U A15U]  9.42e-05 s⁻¹
43  AUAAAAGCGCCAGAUCUACAGAAAUGUAGUUGACUAGGAGGAGGUAUAUCGAAUUUUCGGCGGAUGCCUCCAAA [A15U G35U U46A]   < 1e-05 s⁻¹
44  AUAAAAGCGCCAGAACUACAGAAAUGUAGUUGACGAGGAGGAGGUUUCUGGAAUUUUCGGCGGCUGCCUCCAAA [A48C C50G A64C]   < 1e-05 s⁻¹
45  AUAAAAGCGCCAGAACUACAGAAAUGUAGUUGACGAGGAAGAGGUGUAUCGAAUUUUCGGCGGAUGCCUCCAAA [G40A U46G]  0.000841 s⁻¹
46  AUAAAAUCGCCAGAAUUACAGAAAUGUAGUUGUCGAGGAGGAGGUUUAUCGAAUUUUCGGCGGAUGCCUCCAAA [G7U C16U A33U]   < 1e-05 s⁻¹

The values you see were collected from the supplement of paper PMC7125110.
